target: human KDR on cells (human, UniProt P35968 20-1356); assay: cell-based or functional assay
Sequence (P35968 20-1356): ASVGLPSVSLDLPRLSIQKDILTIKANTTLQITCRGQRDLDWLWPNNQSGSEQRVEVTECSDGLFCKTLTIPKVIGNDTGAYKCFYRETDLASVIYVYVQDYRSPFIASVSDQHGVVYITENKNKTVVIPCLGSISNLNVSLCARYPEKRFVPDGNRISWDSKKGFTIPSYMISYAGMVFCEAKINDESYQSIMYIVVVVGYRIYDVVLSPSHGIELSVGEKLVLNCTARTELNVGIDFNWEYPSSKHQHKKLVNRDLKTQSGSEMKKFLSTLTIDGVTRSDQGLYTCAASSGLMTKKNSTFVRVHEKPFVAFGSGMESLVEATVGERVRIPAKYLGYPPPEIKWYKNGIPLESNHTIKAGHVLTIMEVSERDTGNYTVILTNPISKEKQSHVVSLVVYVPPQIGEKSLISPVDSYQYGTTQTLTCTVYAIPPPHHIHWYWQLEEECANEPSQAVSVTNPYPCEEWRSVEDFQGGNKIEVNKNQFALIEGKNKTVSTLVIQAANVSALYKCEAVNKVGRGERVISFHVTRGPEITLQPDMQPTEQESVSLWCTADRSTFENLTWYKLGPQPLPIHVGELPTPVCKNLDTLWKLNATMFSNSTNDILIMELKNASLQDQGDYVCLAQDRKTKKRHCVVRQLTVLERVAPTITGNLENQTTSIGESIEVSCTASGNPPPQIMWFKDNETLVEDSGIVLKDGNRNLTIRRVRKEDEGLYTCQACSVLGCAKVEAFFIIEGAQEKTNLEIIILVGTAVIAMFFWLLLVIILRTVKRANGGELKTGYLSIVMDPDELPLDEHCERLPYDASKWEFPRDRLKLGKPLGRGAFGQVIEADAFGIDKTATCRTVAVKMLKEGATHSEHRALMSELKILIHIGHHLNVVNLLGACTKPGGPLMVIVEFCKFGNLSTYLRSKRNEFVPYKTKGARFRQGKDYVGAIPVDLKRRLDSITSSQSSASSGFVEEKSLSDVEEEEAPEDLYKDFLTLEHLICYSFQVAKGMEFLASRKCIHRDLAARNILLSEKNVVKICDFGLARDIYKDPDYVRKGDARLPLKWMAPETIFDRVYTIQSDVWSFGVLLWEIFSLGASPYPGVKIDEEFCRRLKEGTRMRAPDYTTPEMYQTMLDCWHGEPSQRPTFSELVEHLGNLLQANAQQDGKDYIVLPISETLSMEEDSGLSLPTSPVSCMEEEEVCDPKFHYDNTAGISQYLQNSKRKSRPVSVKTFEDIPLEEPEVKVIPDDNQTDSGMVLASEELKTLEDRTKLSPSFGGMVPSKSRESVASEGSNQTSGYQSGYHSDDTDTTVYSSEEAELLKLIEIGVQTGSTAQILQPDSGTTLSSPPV
Readout: % Inhibition (N = 1) of VEGF-C-mediated KDR activity, antibody 10 nM (%)
Just the number in %, nothing appended.

Fill in: % Inhibition (N = 1) of VEGF-C-mediated KDR activity, antibody 10 nM of 24B3 (antibody, V domains shown, Purified fully human monoclonal antibody from XenoMouse hybridoma (IgG2 or IgG4 strains); also called MAb 24B3) VH: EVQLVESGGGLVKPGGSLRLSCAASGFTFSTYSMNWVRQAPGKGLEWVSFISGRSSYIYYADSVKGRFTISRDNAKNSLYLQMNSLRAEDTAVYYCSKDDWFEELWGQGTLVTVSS VL: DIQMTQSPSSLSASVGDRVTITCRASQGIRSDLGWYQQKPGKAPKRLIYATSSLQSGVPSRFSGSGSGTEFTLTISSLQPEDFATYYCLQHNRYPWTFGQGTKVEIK is ___ 61

Name the reported % Inhibition (N = 1) of VEGF-C-mediated KDR activity, antibody 10 nM value associated with the binder 27A3 (antibody, V domains shown) VH: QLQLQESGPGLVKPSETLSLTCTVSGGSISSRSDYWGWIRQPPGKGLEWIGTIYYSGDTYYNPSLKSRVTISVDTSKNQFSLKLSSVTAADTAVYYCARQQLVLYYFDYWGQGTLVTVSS VL: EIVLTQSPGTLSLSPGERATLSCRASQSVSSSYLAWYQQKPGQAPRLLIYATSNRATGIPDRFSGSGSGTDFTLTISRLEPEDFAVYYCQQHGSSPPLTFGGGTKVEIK 75

Field request: % Inhibition (N = 1) of VEGF-C-mediated KDR activity, antibody 10 nM | item: 21H6 (antibody, V domains shown) VH: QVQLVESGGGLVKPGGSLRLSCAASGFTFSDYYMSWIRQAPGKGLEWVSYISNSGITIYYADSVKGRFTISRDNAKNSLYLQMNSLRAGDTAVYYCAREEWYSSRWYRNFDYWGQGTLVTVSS VL: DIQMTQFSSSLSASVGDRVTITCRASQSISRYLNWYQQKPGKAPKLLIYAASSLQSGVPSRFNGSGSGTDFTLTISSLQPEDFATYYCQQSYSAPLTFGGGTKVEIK 78
